- Measurement notes: Aqueous solubility in different cyclodextrin solutions (excess compound, shaken 24 hours, HPLC)
- Format: physicochemical
- Test settings: aqueous cyclodextrin solution, water, thermodynamic from solid, ACD 0 mg/ml, room temperature, read-out: Solubility in CD's solution (concentration of compound)
# solubility at 24 h per record follows

[
  {
    "Compound": "O=C1NC(=O)C(c2occc2Sc2ccc(OCc3cccc(C(F)(F)F)c3)cc2)N1 (stereo not shown)",
    "solubility at 24 h / µg/mL": 138
  },
  {
    "Compound": "Cc1ccccc1COc1ccc(Sc2ccoc2C2NC(=O)NC2=O)cc1 (stereo not shown)",
    "solubility at 24 h / µg/mL": 64
  },
  {
    "Compound": "COc1cccc(COc2ccc(Sc3ccoc3C3NC(=O)NC3=O)cc2)c1 (stereo not shown)",
    "solubility at 24 h / µg/mL": 23
  },
  {
    "Compound": "Cc1cccc(COc2ccc(Sc3ccoc3C3NC(=O)NC3=O)cc2)c1 (stereo not shown)",
    "solubility at 24 h / µg/mL": 26
  }
]

These measurements were taken from patent US11628220B2.
